- Test system: Lactuca sativa
- measurement_description: Stimulation of germination of Lactuca sativa cv. Roman (lettuce) at 0.1 mM or 1 mM after 5 days relative to untreated control
- Format: functional
Active and inactive are the calls of the source. The rule behind the calls is not given here.

{"molecule": "C=C1CC[C@H]2C(=C)CC[C@@H](C(=C)CO)[C@H](O)[C@@H]12", "Activity": "inactive"}
{"molecule": "C=C1C(=O)C[C@H]2C(=C)CC[C@H]3C(=C)C(=O)O[C@@H]3[C@@H]12 [DEHYDROZALUZANIN C]", "Activity": ">40%"}
{"molecule": "C=C1C(=O)O[C@H]2[C@H]1CCC(=C)[C@@H]1C[C@@H](O)C(=C)[C@@]12O [5ALPHA-HYDROXYISOZALUZANIN C]", "Activity": "20%"}
{"molecule": "C=C1CC[C@H]2[C@H](C)C(=O)O[C@@H]2[C@@]2(O)C(=C)[C@H](O)C[C@@H]12", "Activity": "inactive"}
{"molecule": "C=C1CC[C@H]2[C@H](C)C(=O)O[C@@H]2[C@@]2(O)C(=C)[C@H](O)C[C@@]12O", "Activity": "20%"}
{"molecule": "C=C1C(=O)O[C@H]2[C@H]1CCC(=C)[C@]13C[C@@H](O)C(=C)[C@]21OC(C)(C)O3", "Activity": "<20%"}
{"molecule": "C=C1CC[C@H]2C(=C)CC[C@@H]3[C@H](OC(=O)[C@]3(O)CO)[C@@H]12", "Activity": "inactive"}
{"molecule": "C=C1[C@@H]2[C@H]3OC(=O)C(=C)[C@@H]3CCC(=C)[C@@H]2C[C@H]1O", "Activity": "<20%"}

====

- Test system: Lactuca sativa
- measurement_description: Stimulation of hypocotyl length of Lactuca sativa cv. Roman (lettuce) at 0.1 mM or 1 mM after 5 days relative to untreated control
- Assay type: functional
Recorded Activity for the following compounds
measurement_label: Activity

{"compound": "C=C1C(=O)O[C@H]2[C@H]1CCC(=C)[C@@H]1C[C@@H](O)C(=C)[C@@]12O [5ALPHA-HYDROXYISOZALUZANIN C]", "observed": "20%"}
{"compound": "C=C1C(=O)C[C@H]2C(=C)CC[C@H]3C(=C)C(=O)O[C@@H]3[C@@H]12 [DEHYDROZALUZANIN C]", "observed": ">40%"}
{"compound": "C=C1CC[C@H]2[C@H](C)C(=O)O[C@@H]2[C@@]2(O)C(=C)[C@H](O)C[C@@H]12", "observed": "20%"}
{"compound": "C=C1CC[C@H]2C(=C)CC[C@@H]3[C@H](OC(=O)[C@]3(O)CO)[C@@H]12", "observed": "<20%"}
{"compound": "CC(=O)O[C@H]1CC(C)=C2C(=O)C=C(C)[C@@H]2[C@H]2OC(=O)[C@H](C)[C@H]21 [8ALPHA-ACETOXYACHILLIN]", "observed": "<20%"}
{"compound": "C=C1[C@@H]2[C@H]3OC(=O)[C@@H](CO)[C@@H]3CCC(=C)[C@@H]2C[C@H]1O", "observed": ">40%"}
{"compound": "COc1nc(C)nc(NC(=O)NS(=O)(=O)c2ccccc2OCCCl)n1 [LOGRAN]", "observed": ">40%"}
{"compound": "C=C1[C@@H]2[C@H]3OC(=O)C(=C)[C@@H]3CCC(=C)[C@@H]2C[C@H]1O [ISOZALUZANIN C]", "observed": "<20%"}
